Recorded measurements of RP-LC retention time, one per entry
Assay: gradient 5% acetonitrile 3 min, to 50% in 2 min, to 85% in 15 min, held 3 min, 100 µL/min
Settings: column: Zorbax Extend-C18 2.1 x 50 mm; eluents: water / acetonitrile, 0.1% formic acid
measured.property: RP-LC retention time (s)

[
  {
    "molecule": "O=C(Nc1ccc2c(c1)OCCO2)N1CCN(c2cc(-c3ccccc3)ncn2)CC1",
    "measured.property": "RP-LC retention time",
    "unit.label": "s",
    "reported.value": 645
  },
  {
    "molecule": "O=c1oc2c(CN3CCCC3)c(O)ccc2c2c1CCC2",
    "measured.property": "RP-LC retention time",
    "unit.label": "s",
    "reported.value": 588
  },
  {
    "molecule": "COc1ccc(NC(=O)C2CC(=O)N(CCc3c[nH]c4ccc(Cl)cc34)C2)c(OC)c1 (stereo not given)",
    "measured.property": "RP-LC retention time",
    "unit.label": "s",
    "reported.value": 820
  },
  {
    "molecule": "O=C(CCc1conc1-c1ccc(F)cc1)NCC1CCCCC1",
    "measured.property": "RP-LC retention time",
    "unit.label": "s",
    "reported.value": 996
  },
  {
    "molecule": "CN(C)c1ccc(C(=O)Nc2cc(-c3ccccn3)no2)cc1",
    "measured.property": "RP-LC retention time",
    "unit.label": "s",
    "reported.value": 812
  },
  {
    "molecule": "O=C(Cn1cnc2c(sc3nc(-c4ccccc4)ccc32)c1=O)Nc1cc(F)ccc1F",
    "measured.property": "RP-LC retention time",
    "unit.label": "s",
    "reported.value": 1040
  },
  {
    "molecule": "O=C(c1ccc(Cl)s1)N1CCN(CC(O)c2cccs2)CC1 (stereo not given)",
    "measured.property": "RP-LC retention time",
    "unit.label": "s",
    "reported.value": 572
  },
  {
    "molecule": "CCn1cc2c3c(cccc31)CN(C(=O)Nc1ccc(Cl)cc1F)CC2",
    "measured.property": "RP-LC retention time",
    "unit.label": "s",
    "reported.value": 1050
  },
  {
    "molecule": "Cc1ccc(Cn2c(C(=O)NC3CCC(C)CC3)cc3sccc32)cc1 (stereo not given)",
    "measured.property": "RP-LC retention time",
    "unit.label": "s",
    "reported.value": 1340
  },
  {
    "molecule": "N#Cc1ccc(-c2csc(NC(=O)c3sc4ccccc4c3Cl)n2)cc1",
    "measured.property": "RP-LC retention time",
    "unit.label": "s",
    "reported.value": 1240
  }
]

###

Assay: gradient 5% acetonitrile 3 min, to 50% in 2 min, to 85% in 15 min, held 3 min, 100 µL/min
Details: column: Zorbax Extend-C18 2.1 x 50 mm; eluents: water / acetonitrile, 0.1% formic acid
Criterion: RP-LC retention time strictly less than 700 s. Met: class 1. Not met: class 0.

[
  {
    "molecule": "Cn1c(=O)n(C2CCCN(C(=O)Cc3ccccc3)C2)c2ncncc21 (stereo not given)",
    "answer.label": "class 1"
  },
  {
    "molecule": "CCN1c2ccc(Cl)cc2C(=O)NC12CCN(C(=O)Nc1ccccc1OC)CC2",
    "answer.label": "class 0"
  },
  {
    "molecule": "O=C(NCCCN1CCOCC1)C1=C2CCCN2c2ccc(F)cc2S1(=O)=O",
    "answer.label": "class 1"
  }
]
